- test system: human CDK4 and genetically truncated (1-264) cyclin D3 (Homo sapiens)
- Sequence (P11802 whole entry, the tested form may be a part): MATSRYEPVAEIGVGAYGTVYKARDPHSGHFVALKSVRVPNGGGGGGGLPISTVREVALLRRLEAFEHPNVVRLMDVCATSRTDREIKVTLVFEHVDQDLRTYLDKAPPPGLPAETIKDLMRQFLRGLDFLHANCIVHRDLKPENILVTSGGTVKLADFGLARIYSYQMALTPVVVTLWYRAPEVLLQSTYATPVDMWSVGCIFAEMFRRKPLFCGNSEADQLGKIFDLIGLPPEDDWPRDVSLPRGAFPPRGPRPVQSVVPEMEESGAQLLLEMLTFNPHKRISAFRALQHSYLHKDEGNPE
- Sequence (P30281 1-264 partner): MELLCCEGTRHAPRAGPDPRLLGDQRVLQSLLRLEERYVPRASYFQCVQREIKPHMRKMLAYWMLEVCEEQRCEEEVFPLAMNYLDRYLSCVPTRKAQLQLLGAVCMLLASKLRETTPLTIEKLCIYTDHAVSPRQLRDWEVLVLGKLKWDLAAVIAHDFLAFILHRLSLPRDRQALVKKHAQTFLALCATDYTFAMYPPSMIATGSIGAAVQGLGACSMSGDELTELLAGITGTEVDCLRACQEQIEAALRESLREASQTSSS
- assay summary: Inhibition of CDK4/Cyclin D Retinoblastoma Kinase Activity
- Assay type: biochemical
- condition label: at 0.03 μM
readout name: CDK4 % Inhibition at 0.03 μM (%)

Item under review: CC(C)=CCCC(C)CC(=O)N1CCC(Nc2nc(N)c(C(=O)c3c(F)cccc3F)s2)CC1 (stereo not shown) [Example R170] . Reported CDK4 % Inhibition at 0.03 μM? 22

a: Cc1onc(-c2c(Cl)cccc2Cl)c1C(=O)N1CCC(Nc2nc(N)c(C(=O)c3c(F)cccc3F)s2)CC1 [Example R26]
b: CC(C(=O)N1CCC(Nc2nc(N)c(C(=O)c3c(F)cccc3F)s2)CC1)c1ccccc1 (stereo not shown) [Example R160]
Please tell me which of the two, a or b , has the higher reported CDK4 % Inhibition at 0.03 μM value. Give the label under which the chosen entry appears. a
(a: 64%, b: 6%)

* * *

- test system: human CDK4 and genetically truncated (1-264) cyclin D3 (Homo sapiens)
- assay summary: Inhibition of CDK4/Cyclin D Retinoblastoma Kinase Activity
- Format: biochemical
- condition label: 0.03 μM compound; Table 2
readout name: CDK4 % Inhibition at 0.03 μM (%)

In the examples that follow, each entry is paired with its recorded CDK4 % Inhibition at 0.03 μM.
I am curious: what CDK4 % Inhibition at 0.03 μM value has been reported for COC(=O)c1cccc(NC(=O)N2CCC(Nc3nc(N)c(C(=O)c4c(F)cccc4F)s3)CC2)c1 ? 12

Record request: CDK4 % Inhibition at 0.03 μM value, item CCOC(=O)c1ccc(NC(=O)N2CCC(Nc3nc(N)c(C(=O)c4c(F)cccc4F)s3)CC2)cc1 13

Give the measured CDK4 % Inhibition at 0.03 μM of Nc1nc(NC2CCN(C(=O)Nc3ccccc3)CC2)sc1C(=O)c1c(F)cccc1F . 6

What CDK4 % Inhibition at 0.03 μM value was documented for this molecule, CC(C)NC(=O)N1CCC(Nc2nc(N)c(C(=O)c3c(F)cccc3F)s2)CC1 ? 10

Would you kindly share the measured CDK4 % Inhibition at 0.03 μM for CC(=O)c1ccc(NC(=O)N2CCC(Nc3nc(N)c(C(=O)c4c(F)cccc4F)s3)CC2)cc1 ? 11

Find the recorded CDK4 % Inhibition at 0.03 μM belonging to CC(NC(=O)N1CCC(Nc2nc(N)c(C(=O)c3c(F)cccc3F)s2)CC1)c1cccc2ccccc12 (centres unmarked) and report it. 8

I: Cc1ccc(NC(=O)N2CCC(Nc3nc(N)c(C(=O)c4c(F)cccc4F)s3)CC2)cc1C
II: Cc1cccc(NC(=O)N2CCC(Nc3nc(N)c(C(=O)c4c(F)cccc4F)s3)CC2)c1
Dear colleague, could you let me know whether I or II has the lower recorded CDK4 % Inhibition at 0.03 μM? Thanks. Answer by quoting the chosen item's label. II
(II: 6%, I: 11%)

* * *

- test system: human CDK4 and genetically truncated (1-264) cyclin D3 (Homo sapiens)
- assay summary: Inhibition of CDK4/Cyclin D Retinoblastoma Kinase Activity
- Format: biochemical
- condition label: at 0.03 μM
readout name: CDK4 % Inhibition at 0.03 μM (%)

Sample records with CDK4 % Inhibition at 0.03 μM:
// lookup CDK4 % Inhibition at 0.03 μM for Nc1nc(NC2CCN(C(=O)C3Cc4ccccc43)CC2)sc1C(=O)c1c(F)cccc1F (centres unmarked) −5

Reported CDK4 % Inhibition at 0.03 μM, compound Cc1noc(C)c1C(=O)N1CCC(Nc2nc(N)c(C(=O)c3c(F)cccc3F)s2)CC1 : ____ 22

I am curious: what CDK4 % Inhibition at 0.03 μM value has been reported for Nc1nc(NC2CCN(C(=O)CCOc3ccccc3)CC2)sc1C(=O)c1c(F)cccc1F ? 43

I'd like to know its CDK4 % Inhibition at 0.03 μM. The compound in question is CC1CCC(C(C)C)C(OC(=O)N2CCC(Nc3nc(N)c(C(=O)c4c(F)cccc4F)s3)CC2)C1 (centres unmarked) 9

Query: CDK4 % Inhibition at 0.03 μM; subject: Nc1nc(NC2CCN(C(=O)c3ccno3)CC2)sc1C(=O)c1c(F)cccc1F 83

Bench note: what CDK4 % Inhibition at 0.03 μM did Nc1nc(NC2CCN(C(=O)CC3CCCC3)CC2)sc1C(=O)c1c(F)cccc1F [Example R96] show? −18

A: Nc1nc(NC2CCN(C(=O)OC3CCCC3)CC2)sc1C(=O)c1c(F)cccc1F
B: COc1cccc(C(=O)N2CCC(Nc3nc(N)c(C(=O)c4c(F)cccc4F)s3)CC2)c1
Between the entries labelled A and B , which has a larger CDK4 % Inhibition at 0.03 μM value on record? Let me know the label of the one you choose. B
